# Emax per entry
biological target: M1 muscarinic receptor (Homo sapiens); construct: expressed in transfected cells; host or cells: CHO cells (M1-CHO, under zeocin and G418 selection); experiment: Functional mobilization of intracellular calcium (FLIPR, Fluo-3), M1-CHO cells; assay type: cell-based; conditions: compound nos. 1-454; 100% efficacy is the maximum response obtained with the Carbachol control; read-out: M1 Efficacy

Check out these entries, answers already filled in.
molecule	Emax
Cc1ccc2c(c1)C1(CCN(C3CC4CCC3C4)CC1)CN2C(=O)OC(C)(C)C (centres unmarked)	65 to 85%
CC(=O)N1CC2(CCN(C3CC4CCC(C3)N4C(=O)O[C@@H]3CCOC3)CC2)c2cc(F)ccc21 (some centres unmarked)	< 65%
Clc1ccc2c(c1)C1(CCN(C3CCC4CCC3C4)CC1)CN2 (centres unmarked)	> 85%

Query the reported Emax for M1 muscarinic receptor (Homo sapiens); item: O=C(O[C@@H]1CCOC1)N1CC2(CCN(C3CC4CCC(C3)N4C(=O)O[C@H]3CCOC3)CC2)c2cc(F)ccc21 (some centres unmarked)
< 65%

Provide the documented Emax with M1 muscarinic receptor (Homo sapiens) as the system for CCOC(=O)N1C2CCC1CC(N1CCC3(CC1)CN(S(=O)(=O)c1ccc(F)cc1)c1ccc(F)cc13)C2 (centres unmarked)
65 to 85%

Form entry - test system: M1 muscarinic receptor (Homo sapiens); read-out: Emax; molecule: Fc1ccc2c(c1)C1(CCN(CC3CCC4CCC3C4)CC1)CN2 (centres unmarked)
65 to 85%

Provide value of Emax for this record tested with M1 muscarinic receptor (Homo sapiens): CCOC(=O)N1CCC(N2CCC3(CC2)CN(C(=O)C(C)C)c2ccc(F)cc23)CC1
65 to 85%

// lookup Emax | system=M1 muscarinic receptor (Homo sapiens) | key= CCOC(=O)N1C2CCC1CC(N1CCC3(CC1)CN(C(=O)c1snnc1C)c1ccc(F)cc13)C2 (centres unmarked)
< 65%

###

Biological target: M1 muscarinic receptor (Homo sapiens)
Construct: expressed in transfected cells; host or cells: CHO cells (M1-CHO, under zeocin and G418 selection)
Test: Functional mobilization of intracellular calcium (FLIPR, Fluo-3), M1-CHO cells
Type: cell-based
Settings: compound nos. 1-454; 100% efficacy is the maximum response obtained with the Carbachol control; read-out: M1 Efficacy
Method: CHO cells expressing muscarinic receptors (M1 to M5) are grown as monolayers in tissue culture flasks at 37° C. in a humidified atmosphere containing 5% CO2 and passaged every 3-5 days. […] The potency, efficacy and selectivity of the muscarinic compounds were evaluated by screening the compound activity across the whole family (M1 to M5 cells). […]
Measured Emax accompanies every entry in the list below.

compound	Emax
Clc1ccc2c(c1)C1(CCN([C@H]3C[C@@H]4CC[C@H]3C4)CC1)CO2 [compound 181]	65 to 85%

# query: Emax of entry CC(=O)NC1CC2(CCN(C[C@H]3C[C@H]4CC[C@H]3C4)CC2)c2ccccc21 (stereo partly shown) [compound 161]
> 85%

Can you look up the measured Emax of Clc1ccc2c(c1)C1(CCN(C3CC4CCC3C4)CC1)CN2 (stereo not shown) [compound 224] for me?
65 to 85%

What value of measured Emax is listed for CC(=O)N[C@H]1CC2(CCN(C3CCCCCC3)CC2)c2ccccc21 [compound 143] ?
65 to 85%

###

Molecular target: M4 muscarinic receptor (Homo sapiens, UniProt P08173)
Construct: expressed in transfected cells; host or cells: CHO cells (M4-CHO, under puromycin, zeocin and blasticidin selection)
Sequence (P08173 1-479): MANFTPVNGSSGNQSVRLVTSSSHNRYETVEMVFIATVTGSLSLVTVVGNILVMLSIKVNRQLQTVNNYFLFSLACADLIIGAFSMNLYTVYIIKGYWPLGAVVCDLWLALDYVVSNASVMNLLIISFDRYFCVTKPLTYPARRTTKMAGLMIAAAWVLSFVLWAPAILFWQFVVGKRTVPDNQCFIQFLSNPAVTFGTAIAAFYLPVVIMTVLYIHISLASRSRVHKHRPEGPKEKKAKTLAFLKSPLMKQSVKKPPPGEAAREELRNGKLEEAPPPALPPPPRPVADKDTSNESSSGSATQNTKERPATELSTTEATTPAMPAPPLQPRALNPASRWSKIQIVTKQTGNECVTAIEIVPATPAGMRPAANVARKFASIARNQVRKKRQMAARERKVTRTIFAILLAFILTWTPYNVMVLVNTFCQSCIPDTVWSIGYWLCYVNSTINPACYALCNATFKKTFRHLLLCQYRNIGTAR
Assay: Functional mobilization of intracellular calcium (FLIPR, Fluo-3), M4-CHO cells
Assay type: cell-based
Conditions: compound nos. 1-454; 100% efficacy is the maximum response obtained with the Carbachol control; read-out: M4 Efficacy
result_type: Emax

compound	Emax
O=C(OC1CCCC1)N1C2CCC1CC(N1CCC3(CCc4ccccc43)CC1)C2 (centres unmarked) [compound 258]	< 55%
CC(=O)N(C)[C@H]1CC2(CCN(C[C@H]3C[C@H]4CC[C@@H]3C4)CC2)c2ccccc21 [compound 190]	55 to 70%
C#CCCOC(=O)N1CCC(N2CCC3(CC2)CN(C(=O)N(C)C)c2ccc(F)cc23)CC1 [compound 127]	< 55%
COc1cccc(N2CCC(N3CCC4(CC3)CN(C(=O)N(C)C)c3ccc(F)cc34)CC2)c1 [compound 441]	55 to 70%

# lookup: Emax of CC(=O)N1CC2(CCN(C3CCN(C(=O)OC(C)C)CC3)CC2)c2cc(F)ccc21 [compound 269]
> 70%

Using the record for CCOC(=O)N1CCC(N2CCC3(CC2)CN(C(C)=O)c2ccc(C)cc23)CC1 [compound 92] , report its Emax.
< 55%

What value of Emax has been reported for the following compound? Fc1ccc2c(c1)C1(CCN(C[C@@H]3C[C@H]4CC[C@H]3O4)CC1)CN2 [compound 429]
< 55%

Look up Emax for this compound: CC(=O)NC1CC2(CCN(C3CC4CCC3C4)CC2)c2ccccc21 (centres unmarked) [compound 291]
55 to 70%

What does the record list as Emax for Clc1ccc2c(c1)C1(CCO2)CCN(C2CCOCC2)CC1 [compound 178] ?
55 to 70%

// returns reported Emax for input CCOC(=O)N1C2CCC1CC(N1CCC3(CC1)CC(=O)Nc1ccccc13)C2 (centres unmarked) [compound 56]
55 to 70%

Please report the recorded Emax for Fc1ccc2c(c1)C1(CCN([C@H]3C[C@@H]4CC[C@@H]3C4)CC1)CO2 [compound 204] .
< 55%

# lookup: Emax of COCCOC(=O)N1CCC(CN2CCC3(CC2)C[C@H](NC(C)=O)c2ccccc23)CC1 [compound 412]
< 55%

Requested field: Emax. Item: CCOC(=O)N1CCC(CN2CCC3(CC2)CN(C(C)=O)c2ccc(C)cc23)CC1 [compound 46]
55 to 70%

Bench note: what Emax did CC(=O)N1CC2(CCN(C3CCC(C(F)(F)F)CC3)CC2)c2cc(F)ccc21 (centres unmarked) [compound 236] show?
55 to 70%

Find the recorded Emax belonging to CC(=O)N1CC2(CCN(C3CC4CCC(C3)N4C(=O)O[C@H]3CCOC3)CC2)c2cc(F)ccc21 (some centres unmarked) [compound 47] and report it.
55 to 70%

Which value of Emax has been reported for O=C(O[C@@H]1CCOC1)N1CC2(CCN(C3CC4CCC(C3)N4C(=O)O[C@H]3CCOC3)CC2)c2cc(F)ccc21 (some centres unmarked) [compound 93] in the records?
< 55%

Returns the measured Emax for the input compound. Input: COCCOC(=O)N1C2CCC1CC(N1CCC3(CC1)COc1ccc(F)cc13)C2 (centres unmarked) [compound 378]
55 to 70%

###

biological target: M1 muscarinic receptor (Homo sapiens, UniProt P11229); construct: expressed in transfected cells; host or cells: CHO cells (M1-CHO, under zeocin and G418 selection); test: Functional mobilization of intracellular calcium (FLIPR, Fluo-3), M1-CHO cells; format: cell-based; conditions: compound nos. 1-454; 100% efficacy is the maximum response obtained with the Carbachol control; read-out: M1 Efficacy
Sequence (P11229 whole entry): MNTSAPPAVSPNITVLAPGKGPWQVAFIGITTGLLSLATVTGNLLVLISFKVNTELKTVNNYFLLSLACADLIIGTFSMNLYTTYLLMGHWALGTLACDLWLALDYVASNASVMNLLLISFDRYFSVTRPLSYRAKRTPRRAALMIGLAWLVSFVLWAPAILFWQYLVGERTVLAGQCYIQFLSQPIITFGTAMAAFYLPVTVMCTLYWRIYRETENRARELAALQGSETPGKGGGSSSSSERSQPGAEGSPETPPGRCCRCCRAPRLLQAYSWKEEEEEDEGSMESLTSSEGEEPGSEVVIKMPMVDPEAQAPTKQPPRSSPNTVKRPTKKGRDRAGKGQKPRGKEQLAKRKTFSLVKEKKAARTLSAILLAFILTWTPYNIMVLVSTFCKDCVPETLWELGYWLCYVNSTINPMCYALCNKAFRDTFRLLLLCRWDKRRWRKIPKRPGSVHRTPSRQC
Below is a list of entries, each paired with its recorded Emax value.

Which measured Emax value corresponds to CCOC(=O)N1CCC(N2CCC3(CC2)C(=O)N(C)c2ccccc23)CC1 ?
> 85%

Report Emax for CCCC1CCC(N2CCC3(CC2)CNc2ccc(F)cc23)CC1 (stereo not drawn) please.
< 65%

Give the measured Emax of Cc1ccc2c(c1)C1(CCN(C3CC4CCC3C4)CC1)CN2C(=O)c1cc(C)n(C)n1 (stereo not drawn) .
65 to 85%

So what does the record say about Emax for Cc1ccc2c(c1)C1(CCN([C@@H]3C[C@@H]4CC[C@@H]3C4)CC1)CN2 ?
< 65%

Report Emax for CCCOC(=O)N1C2CCC1CC(N1CCC3(CC1)CN(C(=O)O[C@@H]1CCOC1)c1ccc(F)cc13)C2 (stereo partly drawn) please.
65 to 85%

Which Emax value is on record for CCOC(=O)N1CCC(N2CCC3(CC2)CN(C(C)=O)c2ccc(-c4cccc(C#N)c4)cc23)CC1 ?
65 to 85%
